# MIC annotations
test system: Staphylococcus aureus (MSSA); conditions: 24 h
Starred links: 1 amine or outer side, 2 acyl side, 3 side chain; linkers in the order of their positions; H or OH if unused. Positions of bridges follow the written chain, without caps; N, C: chain ends. Non-standard residues stand in square brackets, D forms with d. Residues, ends and D or L forms follow the SMILES beside them. ξ: configuration not given here. *: point of attachment. X25 = CC(NC(=O)[C@@H]1CCC(=O)N1)C(N[*:1])C(=O)[*:2]; ξAbu(βξ-NH2) = CC(N[*:3])C(N[*:1])C(=O)[*:2]; Pentadecanoyl = CCCCCCCCCCCCCCC(=O)*; ξAsp(βξ-Me) = CC(C(=O)O)C(N)C(=O)O; ξAbu(3ξ-NH2) = CC(N)C(N)C(=O)O; Lauroyl = CCCCCCCCCCCC(=O)*; X19 = CCCCCCCCCCS(=O)(=O)*; 4Abz = Nc1ccc(C(=O)O)cc1; Pip = O=C(O)[CH]1CCCCN1; ξD = NC(CC(=O)O)C(=O)O; ξPip = O=C(O)C1CCCCN1; ξV = CC(C)C(N)C(=O)O; ξP = O=C(O)C1CCCN1
quantity kind: MIC

compound="CCCCCCCCCCCCCCC(=O)NC(CC(=O)O)C(=O)NC1C(=O)N2CCCCC2C(=O)NC(C(C)C(=O)O)C(=O)NC(CC(=O)O)C(=O)NCC(=O)NC(CC(=O)O)C(=O)NCC(=O)NC(C(C)NC(=O)CNC(=O)[C@@H](N)CN)C(=O)NC(C(C)C)C(=O)N2CCCC2C(=O)NC1C (some centres unmarked)" test_system="Staphylococcus aureus (MSSA)" observed_measurement="4 to 8 µg/mL"
compound="CCCCCCCCCCS(=O)(=O)N[C@@H](Cc1ccccc1)C(=O)NC(CC(=O)O)C(=O)NC1C(=O)N2CCCCC2C(=O)NC(C(C)C(=O)O)C(=O)NC(CC(=O)O)C(=O)NCC(=O)NC(CC(=O)O)C(=O)NCC(=O)NC(C(C)N)C(=O)NC(C(C)C)C(=O)N2CCCC2C(=O)NC1C (stereo partly drawn) [Compound 100, CH3—(CH2)9—SO2-Phe-Amphomycin] (X19-F[ξD][ξAbu(βξ-NH2)][ξPip][ξAsp(βξ-Me)][ξD]G[ξD]G[ξAbu(3ξ-NH2)][ξV][ξP]; lactam 3-C)" test_system="Staphylococcus aureus (MSSA)" observed_measurement="4 µg/mL"
compound="CCCCCCCCCCCC(=O)Nc1ccc(C(=O)NCC(=O)NC(CC(=O)O)C(=O)NC2C(=O)N3CCCCC3C(=O)NC(C(C)C(=O)O)C(=O)NC(CC(=O)O)C(=O)NCC(=O)NC(CC(=O)O)C(=O)NCC(=O)NC(C(C)N)C(=O)NC(C(C)C)C(=O)N3CCCC3C(=O)NC2C)cc1 (stereo not drawn) [Compound 123, C12-PABA-Gly-Amphomycin] ({Lauroyl-4Abz}-GD[ξAbu(βξ-NH2)][Pip][ξAsp(βξ-Me)]DGDG[ξAbu(3ξ-NH2)]VP; lactam 3-C; configuration not given here)" test_system="Staphylococcus aureus (MSSA)" observed_measurement="1 µg/mL"
compound="CCCCCCCCCCCCCCC(=O)NC(CC(=O)O)C(=O)NC1C(=O)N2CCCCC2C(=O)NC(C(C)C(=O)O)C(=O)NC(CC(=O)O)C(=O)NCC(=O)NC(CC(=O)O)C(=O)NCC(=O)NC(C(C)NC(=O)[C@H](N)Cc2c[nH]c3ccccc23)C(=O)NC(C(C)C)C(=O)N2CCCC2C(=O)NC1C (some centres unmarked)" test_system="Staphylococcus aureus (MSSA)" observed_measurement="8 µg/mL"
compound="CCCCCCCCCCCCCCC(=O)NC(CC(=O)O)C(=O)NC1C(=O)N2CCCCC2C(=O)NC(C(C)C(=O)O)C(=O)NC(CC(=O)O)C(=O)NCC(=O)NC(CC(=O)O)C(=O)NCC(=O)NC(C(C)NC(=O)[C@@H]2CCC(=O)N2)C(=O)NC(C(C)C)C(=O)N2CCCC2C(=O)NC1C (stereo partly drawn) [Compound 373] (Pentadecanoyl-[ξD][ξAbu(βξ-NH2)][ξPip][ξAsp(βξ-Me)][ξD]G[ξD]G[X25][ξV][ξP]; lactam 2-C)" test_system="Staphylococcus aureus (MSSA)" observed_measurement=">64 µg/mL"
